src = paper PMC9482650

- experimental.system: DLG4_1, P78352
- Sequence (P78352 62-152): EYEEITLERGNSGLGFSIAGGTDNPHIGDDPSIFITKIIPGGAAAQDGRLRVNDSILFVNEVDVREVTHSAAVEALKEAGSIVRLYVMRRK
- test.summary: holdup assay
- Design: key: below the threshold = too weak to quantify, mostly under pKd 3.1 to 4
- assay.conditions: plain residues with an end cap or a label only (N-terminal biotin on a linker: ado-ado)
readout: pKd

Exercise: Give the measured pKd of VKPQVSESKL [ACOT8, O14734] .
Solution: below the threshold

Exercise: Give the measured pKd of RRISSLESEV [GRIN2C, Q14957] .
Solution: 4.68

Exercise: Give the measured pKd of SAAKVLTSMC [GHRHR, Q02643] .
Solution: below the threshold

Exercise: Give the measured pKd of MLSKQSESAI [FLVCR1, Q9Y5Y0] .
Solution: below the threshold
